These measurements were taken from paper PMC6151428.

system: rat aortic rings; test: Vasorelaxant activity test, NE model; details: rat aortic rings constricted with norepinephrine (1 μM); a: mean N = 6; b: single determination; -- = No activity
endpoint: EC50 (µM)

A = O=C(Nc1ccc2[nH]ncc2c1)C1CCN(Cc2ccc(Br)cc2)C1 (stereo not drawn)
B = O=C(Nc1ccc2[nH]ncc2c1)[C@@H]1CCN(Cc2ccccc2)C1
C = COc1ccc(CN2CCC(C(=O)Nc3ccc4[nH]ncc4c3)C2)cc1 (stereo not drawn)
Ask | Order all 3 entries above by recorded EC50, highest first, lowest last. Hello, could you send the labels back in the order asked? Thank you.
Reply | A, B, C
(A: 46.8 µM, B: 11.5 µM, C: 5.57 µM)

----------
Entries and their melting point

Worked cases, melting point given:
[
  {
    "molecule": "O=C(Nc1ccc2cn[nH]c2c1)[C@H]1CCCN1Cc1ccccc1 [Compound 3b]",
    "melting point": "192 to 193 °C"
  },
  {
    "molecule": "O=C(Nc1ccc2[nH]ncc2c1)C1CCN(C(=O)c2ccc([N+](=O)[O-])cc2)C1 (stereo not drawn) [Compound 5e]",
    "melting point": "177 to 178 °C"
  },
  {
    "molecule": "N#Cc1ccc(CN2CCC(C(=O)Nc3ccc4[nH]ncc4c3)C2)cc1 (stereo not drawn) [Compound 4f]",
    "melting point": "202 to 204 °C"
  }
]

Ask | Suppose we examine the molecule O=C(Nc1ccc2cn[nH]c2c1)C1CCCN1Cc1ccccc1 (stereo not drawn) [Compound 3a] ; what melting point value has been reported?
Reply | 195 to 196 °C

Ask | Given the entry O=C(Nc1ccc2[nH]ncc2c1)C1CCN(Cc2ccc(Br)cc2)C1 (stereo not drawn) [Compound 4d] , report its measured melting point.
Reply | 235 to 236 °C

----------
Molecular target: ROCK I (Homo sapiens, UniProt Q13464)
Construct: purchased Cyclex, Nagoya, Japan CY-1160
Sequence (Q13464 whole entry, species assumed): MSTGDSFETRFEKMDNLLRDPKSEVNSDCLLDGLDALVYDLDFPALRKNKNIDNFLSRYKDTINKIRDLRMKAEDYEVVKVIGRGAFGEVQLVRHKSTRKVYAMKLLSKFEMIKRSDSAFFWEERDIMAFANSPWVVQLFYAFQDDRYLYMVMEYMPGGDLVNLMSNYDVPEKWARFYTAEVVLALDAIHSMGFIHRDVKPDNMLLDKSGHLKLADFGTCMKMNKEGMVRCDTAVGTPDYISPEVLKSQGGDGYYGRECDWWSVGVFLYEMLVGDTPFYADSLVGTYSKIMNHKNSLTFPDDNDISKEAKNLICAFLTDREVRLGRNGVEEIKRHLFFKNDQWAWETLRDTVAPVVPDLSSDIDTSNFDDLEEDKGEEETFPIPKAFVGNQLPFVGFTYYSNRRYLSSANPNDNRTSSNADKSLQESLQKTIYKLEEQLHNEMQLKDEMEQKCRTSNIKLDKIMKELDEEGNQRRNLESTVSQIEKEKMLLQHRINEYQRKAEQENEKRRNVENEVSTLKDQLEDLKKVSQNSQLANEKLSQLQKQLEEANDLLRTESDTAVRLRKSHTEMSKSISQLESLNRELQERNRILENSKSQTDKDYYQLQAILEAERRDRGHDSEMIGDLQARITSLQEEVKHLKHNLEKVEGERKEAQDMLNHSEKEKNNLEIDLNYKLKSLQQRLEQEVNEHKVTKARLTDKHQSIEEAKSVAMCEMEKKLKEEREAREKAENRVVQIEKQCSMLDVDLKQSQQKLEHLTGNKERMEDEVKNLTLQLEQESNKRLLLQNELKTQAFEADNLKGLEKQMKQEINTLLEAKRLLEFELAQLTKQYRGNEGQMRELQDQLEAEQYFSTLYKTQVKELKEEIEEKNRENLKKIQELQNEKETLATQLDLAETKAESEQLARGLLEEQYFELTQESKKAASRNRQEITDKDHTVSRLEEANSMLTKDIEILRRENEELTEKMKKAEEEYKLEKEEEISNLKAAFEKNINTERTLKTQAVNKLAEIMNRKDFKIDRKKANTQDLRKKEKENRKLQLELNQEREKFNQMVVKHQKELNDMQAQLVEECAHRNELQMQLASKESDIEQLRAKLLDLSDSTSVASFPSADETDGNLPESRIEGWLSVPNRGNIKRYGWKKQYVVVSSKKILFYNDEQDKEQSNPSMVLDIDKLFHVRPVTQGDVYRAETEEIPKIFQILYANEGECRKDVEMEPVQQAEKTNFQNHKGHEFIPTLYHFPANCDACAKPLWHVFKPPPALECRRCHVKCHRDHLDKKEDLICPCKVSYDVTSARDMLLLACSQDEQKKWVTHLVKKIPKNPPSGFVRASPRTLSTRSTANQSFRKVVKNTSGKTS
Test: Rho kinase activity assay (Cyclex CY-1160 kit)
Type: biochemical
Details: a: means of multiple experiments (N = 4), errors within 30% of the mean; b: single determinations; read-out: IC50 against ROCK I
Protocol: Briefly, the compounds at 20 μM were pre-incubated in a system wherein ROCK I (0.02 ng/μL) phosphorylates the kinase substrate’s myosin-binding subunit (MBS) pre-absorbed onto the microplate in the presence of Mg^2+ and ATP. […] The absorbance was measured at a wavelength of 450 nm on a microplate reader. […] The inhibitory rates of the compounds on ROCK I were obtained from OD 450 nm and the IC50 values were calculated by nonlinear regression.
endpoint: IC50 (nM)

Worked examples follow.
[
  {
    "molecule": "Cc1ccc(CN2CCC(C(=O)Nc3ccc4[nH]ncc4c3)C2)cc1 (stereo not shown)",
    "system name": "ROCK I (Homo sapiens, UniProt Q13464)",
    "IC50 [nM]": 170
  },
  {
    "molecule": "Cc1ccc(C(=O)N2CCC(C(=O)Nc3ccc4[nH]ncc4c3)C2)cc1 (stereo not shown)",
    "system name": "ROCK I (Homo sapiens, UniProt Q13464)",
    "IC50 [nM]": 11500
  },
  {
    "molecule": "O=C(Nc1ccc2[nH]ncc2c1)C1CCN(Cc2ccc(F)cc2)C1 (stereo not shown)",
    "system name": "ROCK I (Homo sapiens, UniProt Q13464)",
    "IC50 [nM]": 1410
  },
  {
    "molecule": "N#Cc1n[nH]c2ccc([N+](=O)[O-])cc12 [DL0805, 5-Nitro-1H-indazole-3-carbonitrile, reference compound]",
    "system name": "ROCK I (Homo sapiens, UniProt Q13464)",
    "IC50 [nM]": 6670
  },
  {
    "molecule": "O=C(Nc1ccc2[nH]ncc2c1)C1CCN(Cc2ccc(Br)cc2)C1 (stereo not shown)",
    "system name": "ROCK I (Homo sapiens, UniProt Q13464)",
    "IC50 [nM]": 510
  },
  {
    "molecule": "O=C(Nc1ccc2[nH]ncc2c1)C1CCN(Cc2ccccc2)C1 (stereo not shown)",
    "system name": "ROCK I (Homo sapiens, UniProt Q13464)",
    "IC50 [nM]": 270
  }
]

I = O=C(Nc1ccc2[nH]ncc2c1)C1CCN(C(=O)c2ccc(Cl)cc2)C1 (stereo not shown)
II = O=C(Nc1ccc2[nH]ncc2c1)[C@H]1CCN(Cc2ccccc2)C1
III = COc1ccc(CN2CCC(C(=O)Nc3ccc4[nH]ncc4c3)C2)cc1 (stereo not shown)
Ask | Your job: order these 3 records by IC50, ascending. Returns: the labels arranged in the requested order.
Reply | II, III, I

----------
Item-by-item account of melting point

[
  {
    "compound": "O=C(Nc1ccc2[nH]ncc2c1)C1CCN(Cc2ccccc2)C1 (stereo not drawn)",
    "endpoint": "melting point",
    "value": "203 to 204 °C"
  },
  {
    "compound": "Cc1ccc(CN2CCC[C@H]2C(=O)Nc2ccc3[nH]ncc3c2)cc1",
    "endpoint": "melting point",
    "value": "204 to 206 °C"
  }
]

Now look at this entry.
Ask | Could you tell me which melting point is on file for O=C(Nc1ccc2[nH]ncc2c1)C1CCN(Cc2ccc(F)cc2)C1 (stereo not drawn) ?
Reply | 202 to 203 °C

----------
target: ROCK I (Homo sapiens); construct: purchased Cyclex, Nagoya, Japan CY-1160; assay: Rho kinase activity assay (Cyclex CY-1160 kit); assay type: biochemical; settings: compound concentration 20 μM; single determinations
endpoint: inhibition at 20 µM (%)

// solved cases for inhibition at 20 µM follow
[
  {
    "molecule": "O=C(Nc1ccc2[nH]ncc2c1)C1CCCN1Cc1ccccc1 (stereo not drawn)",
    "inhibition at 20 µM / %": 27.2
  },
  {
    "molecule": "O=C(Nc1ccc2cn[nH]c2c1)[C@@H]1CCCN1Cc1ccccc1",
    "inhibition at 20 µM / %": 23.7
  },
  {
    "molecule": "O=C(Nc1ccc2[nH]ncc2c1)C1CCN(Cc2ccccc2)C1 (stereo not drawn)",
    "inhibition at 20 µM / %": 73.2
  },
  {
    "molecule": "O=C(Nc1ccc2[nH]ncc2c1)C1CCN(C(=O)c2ccc([N+](=O)[O-])cc2)C1 (stereo not drawn)",
    "inhibition at 20 µM / %": 45.4
  },
  {
    "molecule": "COc1ccc(CN2CCC(C(=O)Nc3ccc4[nH]ncc4c3)C2)cc1 (stereo not drawn)",
    "inhibition at 20 µM / %": 53.3
  }
]

I = Cc1ccc(CN2CCC[C@H]2C(=O)Nc2ccc3[nH]ncc3c2)cc1
II = O=C(Nc1ccc2[nH]ncc2c1)C1CCN(Cc2ccc(Br)cc2)C1 (stereo not drawn)
Ask | Among I and II , whose measured inhibition at 20 µM is the smaller figure? Mark your selection by writing its label.
Reply | I
(I: 21.3%, II: 62.5%)

----------
test system: rat aortic rings; experiment: Vasorelaxant activity test, NE model; details: rat aortic rings constricted with norepinephrine (1 μM); a: mean N = 6; b: single determination; -- = No activity
pEC50: −log10 of the molar value.
endpoint: pEC50

[
  {
    "compound": "N#Cc1n[nH]c2ccc([N+](=O)[O-])cc12 [DL0805, 5-Nitro-1H-indazole-3-carbonitrile, reference compound]",
    "endpoint": "pEC50",
    "value": 4.54
  },
  {
    "compound": "Cc1ccc(CN2CCC(C(=O)Nc3ccc4[nH]ncc4c3)C2)cc1 (centres unmarked) [Compound 4b]",
    "endpoint": "pEC50",
    "value": 5.39
  },
  {
    "compound": "O=S(=O)(c1cccc2cnccc12)N1CCCNCC1 [fasudil, reference compound]",
    "endpoint": "pEC50",
    "value": 5.33
  }
]

I = O=C(Nc1ccc2[nH]ncc2c1)C1CCN(Cc2ccccc2)C1 (centres unmarked) [Compound 4a]
II = Cc1ccc(C(=O)N2CCC(C(=O)Nc3ccc4[nH]ncc4c3)C2)cc1 (centres unmarked) [Compound 5b]
III = O=C(Nc1ccc2[nH]ncc2c1)C1CCN(Cc2ccc(F)cc2)C1 (centres unmarked) [Compound 4g]
Ask | # ascending order, key=pEC50 Answer format: the labels, ordered as requested.
Reply | II, III, I

----------
Molecular target: ROCK I (Homo sapiens)
Construct: purchased Cyclex, Nagoya, Japan CY-1160
Experiment: Rho kinase activity assay (Cyclex CY-1160 kit)
Type: biochemical
Settings: compound concentration 20 μM; single determinations
Experimental: Briefly, the compounds at 20 μM were pre-incubated in a system wherein ROCK I (0.02 ng/μL) phosphorylates the kinase substrate’s myosin-binding subunit (MBS) pre-absorbed onto the microplate in the presence of Mg^2+ and ATP. […] The absorbance was measured at a wavelength of 450 nm on a microplate reader. […] The inhibitory rates of the compounds on ROCK I were obtained from OD 450 nm and the IC50 values were calculated by nonlinear regression.
endpoint: inhibition at 20 µM (%)

[
  {
    "compound": "Cc1ccc(CN2CCCC2C(=O)Nc2ccc3[nH]ncc3c2)cc1 (centres unmarked)",
    "unit text": "%",
    "inhibition at 20 µM": 26.6
  },
  {
    "compound": "O=C(Nc1ccc2[nH]ncc2c1)C1CCN(C(=O)c2ccc(Br)cc2)C1 (centres unmarked)",
    "unit text": "%",
    "inhibition at 20 µM": 27.9
  },
  {
    "compound": "N#Cc1ccc(CN2CCC(C(=O)Nc3ccc4[nH]ncc4c3)C2)cc1 (centres unmarked)",
    "unit text": "%",
    "inhibition at 20 µM": 24.5
  },
  {
    "compound": "O=C(Nc1ccc2[nH]ncc2c1)[C@@H]1CCCN1Cc1ccccc1",
    "unit text": "%",
    "inhibition at 20 µM": 24.6
  },
  {
    "compound": "O=C(Nc1ccc2[nH]ncc2c1)[C@@H]1CCN(Cc2ccccc2)C1",
    "unit text": "%",
    "inhibition at 20 µM": 73.9
  },
  {
    "compound": "O=C(Nc1ccc2[nH]ncc2c1)C1CCN(C(=O)c2ccc(Cl)cc2)C1 (centres unmarked)",
    "unit text": "%",
    "inhibition at 20 µM": 55.2
  }
]

A = O=C(Nc1ccc2[nH]ncc2c1)[C@H]1CCN(Cc2ccccc2)C1
B = O=C(Nc1ccc2cn[nH]c2c1)[C@H]1CCCN1Cc1ccccc1
Ask | Select the item whose inhibition at 20 µM value is smaller, choosing between A and B . Mark your answer with the label of the selected entry.
Reply | B

I = Cc1ccc(CN2CCC(C(=O)Nc3ccc4[nH]ncc4c3)C2)cc1 (centres unmarked)
II = O=C(Nc1ccc2[nH]ncc2c1)C1CCN(C(=O)c2ccccc2)C1 (centres unmarked)
Ask | Lab note: record which item had the higher inhibition at 20 µM, I or II . Write down the label attached to your selection.
Reply | I
(I: 75.8%, II: 42.5%)

A = O=C(Nc1ccc2[nH]ncc2c1)C1CCN(Cc2ccc(F)cc2)C1 (centres unmarked)
B = O=C(Nc1ccc2[nH]ncc2c1)[C@H]1CCCN1Cc1ccccc1
Ask | Higher inhibition at 20 µM between A and B ? Pick one; state its label.
Reply | A
